The reported numbers originate from patent US20110059095A1.

# target-or-system: T1, Peptide M (human PAR-4), unbiotinylated (Human)
# T1 peptide: ESGSTGGGDDSTPSILPAP
# experiment: SPR, antibody captured
property-name: binding result

Sure, the documented binding result for H4H584P (antibody, human IgG4, V domains shown, also called H1H584P variable regions) VH: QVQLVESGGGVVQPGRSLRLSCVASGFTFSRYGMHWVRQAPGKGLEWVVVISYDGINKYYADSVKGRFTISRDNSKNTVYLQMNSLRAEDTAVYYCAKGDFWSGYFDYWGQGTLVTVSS VL: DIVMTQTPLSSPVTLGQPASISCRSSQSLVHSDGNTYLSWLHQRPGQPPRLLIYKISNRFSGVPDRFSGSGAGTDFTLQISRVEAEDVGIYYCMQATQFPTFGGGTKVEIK is no binding

Sure, the documented binding result for H4H583P (antibody, human IgG4, V domains shown, also called H1H583P variable regions) VH: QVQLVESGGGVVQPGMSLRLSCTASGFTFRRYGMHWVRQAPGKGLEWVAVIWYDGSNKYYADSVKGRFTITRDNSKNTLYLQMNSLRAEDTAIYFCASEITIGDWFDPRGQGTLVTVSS VL: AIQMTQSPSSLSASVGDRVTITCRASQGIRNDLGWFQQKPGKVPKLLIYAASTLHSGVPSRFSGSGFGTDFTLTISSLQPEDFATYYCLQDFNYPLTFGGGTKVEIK is no binding

Sure, the documented binding result for H4H588N (antibody, human IgG4, V domains shown, also called H2M588N variable regions) VH: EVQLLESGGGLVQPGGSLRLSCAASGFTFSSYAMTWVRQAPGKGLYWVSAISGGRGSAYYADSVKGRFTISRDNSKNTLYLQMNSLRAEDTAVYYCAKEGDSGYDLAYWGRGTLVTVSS VL: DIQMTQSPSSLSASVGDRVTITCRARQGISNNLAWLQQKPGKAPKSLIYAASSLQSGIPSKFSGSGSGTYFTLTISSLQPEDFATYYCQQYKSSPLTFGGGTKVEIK is no binding

Sure, the documented binding result for H4H579P (antibody, human IgG4, V domains shown, also called H1H579P variable regions) VH: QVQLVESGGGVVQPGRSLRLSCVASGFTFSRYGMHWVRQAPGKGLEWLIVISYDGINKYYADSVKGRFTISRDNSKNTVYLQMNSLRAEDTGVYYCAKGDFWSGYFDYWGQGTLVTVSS VL: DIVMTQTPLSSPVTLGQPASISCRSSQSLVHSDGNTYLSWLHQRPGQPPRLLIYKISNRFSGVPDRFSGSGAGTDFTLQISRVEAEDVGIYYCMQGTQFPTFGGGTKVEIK is no binding
